# target.of.assay: T1, AdeR_FL (Acinetobacter baumannii ATCC19606, UniProt E1A0Z5 1-247)
# T1 sequence: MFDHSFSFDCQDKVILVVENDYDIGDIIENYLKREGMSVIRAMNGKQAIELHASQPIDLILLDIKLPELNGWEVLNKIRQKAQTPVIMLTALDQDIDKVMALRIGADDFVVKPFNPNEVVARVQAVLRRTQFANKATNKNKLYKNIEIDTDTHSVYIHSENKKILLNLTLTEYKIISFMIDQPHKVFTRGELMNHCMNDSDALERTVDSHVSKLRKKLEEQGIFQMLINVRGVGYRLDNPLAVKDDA
# protocol.details: ITC
observed.property: pKd
When answering, recall that pKd equals minus log10 of the concentration in mol/L, and write that number alone.

Input: Record request: pKd value, item 25 bp intercistronic DNA (dsDNA) DNA 1: TAAAGTGTGGAGTAAGTGTGGAGAA DNA 2: TTCTCCACACTTACTCCACACTTTA
Output: 7.70
